Molecular target: actin (Example II solid-phase assay and BIAcore; source not stated) (Oryctolagus cuniculus (Rabbit), UniProt P68135 3-377)
Assay: solid-phase actin binding assay (ELISA, immobilized actin), double reciprocal plot
Method: 96-well plates (MaxiSorp® flat-bottom 96-well plate, Fisher Scientific Inc., Fair Lawn, N.J.) were coated with 500 ng actin in 100 μl carbonate-bicarbonate buffer (pH 9.5) for 1 h at 37° C. The plate was washed once with TBS and then blocked with 3% BSA in 200 μl TBS buffer at 37° C., for 1 h. […] Absorbance at 655 nm was measured 10 min thereafter using a Power Wave 200 Microplate Scanning Spectrophotometer (Bio-Tek Instrument, Winooski, Vt.). Affinity was evaluated by double reciprocal plotting. […]
assay readout: pKd
Lab note — pKd values are minus log10 of concentrations in M.

Request: # query: pKd of entry peptide A103-Q159 (Synthetic peptide of human RNASET2, tested free in solution; also called 22A) peptide: ALNSQKKYFGRSLELYRELDLNSVLLKLGIKPSINYYQVADFKDALARVYGVIPKIQ
Result: 7.17
